Reported cell viability values for the following molecules.
- Tested on: THP-1
- assay.remarks: cell viability (% survival relative to DMSO control, bortezomib = 0%); higher = less cytotoxic
- settings: 1000 nM; 72 h
Respond with the bare value in %.

Please review the entries below; each comes with its answer.
[[record]]
compound_smiles = "CCn1c(=Cc2cccc[n+]2CC)sc(=C2Sc3ccccc3N2C)c1=O"
value_kind = "cell viability"
val = 98.2

[[record]]
compound_smiles = "CO[C@H]1C[C@@H]2CC[C@@H](C)[C@@](O)(O2)C(=O)C(=O)N2CCCC[C@H]2C(=O)O[C@H]([C@H](C)C[C@@H]2CC[C@@H](OCCO)[C@H](OC)C2)CC(=O)[C@H](C)/C=C(\\C)[C@@H](O)[C@@H](OC)C(=O)[C@H](C)C[C@H](C)/C=C/C=C/C=C/1C"
value_kind = "cell viability"
val = 59.8


Q: Fill in cell viability for record COc1ccc2c(NC(=O)Nc3cccc(C(F)(F)F)n3)ccnc2c1
Ans: 95.2

* * *

In this section we review reported cell viability values for a set of compounds.
- Test system: HEL
- assay.remarks: cell viability (% survival relative to DMSO control, bortezomib = 0%); higher = less cytotoxic
- settings: 100 nM; 72 h
Please state the figure in %; there is no need to write the unit.

Below: 4 compounds and their reported cell viability.
[[record]]
compound = "CCn1c(=Cc2cccc[n+]2CC)sc(=C2Sc3ccccc3N2C)c1=O"
system_tested = "HEL"
uom = "%"
val = 95.7

[[record]]
compound = "OC[C@H]1NC[C@H](O)[C@@H](O)[C@@H]1O"
system_tested = "HEL"
uom = "%"
val = 99.8

[[record]]
compound = "CC/C=C\\C[C@H]1C(=O)CC[C@@H]1CC(=O)OC [Methyl jasmonate]"
system_tested = "HEL"
uom = "%"
val = 114

[[record]]
compound = "CC(=O)Nc1nc(C)c(-c2ccc(Cl)c(S(=O)(=O)NCCO)c2)s1"
system_tested = "HEL"
uom = "%"
val = 96.8


Now for another entry.
Q: Give recorded cell viability. Cn1cc(-c2ccncc2)c(-c2ccc(OCc3ccc4ccccc4n3)cc2)n1
Ans: 96.9

* * *

- Test system: HL-60
- assay.remarks: cell viability (% survival relative to DMSO control); higher = less cytotoxic
- settings: 0.1 µM; 72 h; co-treatment: AZD3965 100 nM
value.kind: cell viability (%)
Could you give me the number in %? Just the number is fine.

[[record]]
molecule = "O=C(/C=C/c1ccc(O)c(O)c1)OCCc1ccccc1"
value_kind = "cell viability"
uom = "%"
val = 104


Pending molecule:
Q: Recall and state the measured cell viability for CCn1c(=Cc2cccc[n+]2CC)sc(=C2Sc3ccccc3N2C)c1=O .
Ans: 97.3

* * *

Entries and their cell viability
- Test system: myeloid leukemia patient primary cells Pat.1
- assay.remarks: cell viability (% survival relative to DMSO control); higher = less cytotoxic
- settings: 10000 nM; 72 h
Reply with just the number (in %).

For orientation, consider the following solved cases.
[[record]]
molecule = "Cc1c2c(=O)n(-c3ccccc3Cl)[nH]c2cc(=O)n1Cc1ccccn1"
val = 85.5

[[record]]
molecule = "C=CCN(C)CCCCCCOc1ccc(C(=O)c2ccc(Br)cc2)c(F)c1.O=C(O)/C=C/C(=O)O [Ro 48-8071 fumarate]"
val = 37.2

[[record]]
molecule = "O=c1cc(N2CCOCC2)oc2c(-c3ccccc3)cccc12"
val = 27.5

[[record]]
molecule = "C[C@]12C=CC(=O)C=C1CC[C@@H]1[C@@H]2[C@@H](O)C[C@@]2(C)[C@H]1CC[C@]2(O)C(=O)CO [Prednisolone]"
val = 97.2


Read the next record carefully.
Q: Hello, please tell me recorded cell viability for this one: CO[C@H]1C[C@@H]2CC[C@@H](C)[C@@](O)(O2)C(=O)C(=O)N2CCCC[C@H]2C(=O)O[C@H]([C@H](C)C[C@@H]2CC[C@@H](OCCO)[C@H](OC)C2)CC(=O)[C@H](C)/C=C(\C)[C@@H](O)[C@@H](OC)C(=O)[C@H](C)C[C@H](C)/C=C/C=C/C=C/1C [Everolimus]
Ans: 41.2

* * *

- System: HL-60
- assay.remarks: cell viability (% survival relative to DMSO control); higher = less cytotoxic
- settings: 10 µM; 72 h; co-treatment: GSK2194069 100 nM
Below, each entry is listed alongside its reported cell viability.
Enter your answer as a number in %; do not include the unit.

Illustrative cases are given below, each with its answer.
[[record]]
compound = "CCc1oc2ccccc2c1C(=O)c1cc(Br)c(O)c(Br)c1 [Benzbromarone]"
system_tested = "HL-60"
value_kind = "cell viability"
val = 97.8

[[record]]
compound = "C[C@H]1c2cccc(O)c2C(=O)C2C(=O)[C@]3(O)C(=O)C(C(N)=O)C(=O)[C@@H](N(C)C)[C@@H]3[C@@H](O)[C@@H]21 (some centres not stated) [Doxycycline]"
system_tested = "HL-60"
value_kind = "cell viability"
val = 108

[[record]]
compound = "O=C([O-])CC(O)(C(=O)[O-])C(O)C(=O)[O-].[K+].[K+].[K+] (configuration not stated) [Hydroxycitrate]"
system_tested = "HL-60"
value_kind = "cell viability"
val = 98.1


Q: Supply cell viability value. Item: O=c1c(-c2ccc(O)cc2)coc2cc(O[C@@H]3O[C@H](CO)[C@@H](O)[C@H](O)[C@H]3O)ccc12 [Daidzin]
Ans: 101

Q: Output measured cell viability for this item: Cc1cc2c(C(C)C)c(O)c(O)c(C=O)c2c(O)c1-c1c(C)cc2c(C(C)C)c(O)c(O)c(C=O)c2c1O [Gossypol]
Ans: 2.81

Q: Check the records and state cell viability for O=c1cc(-c2ccccc2)oc2c1ccc1ccccc12 [Alpha-Naphtoflavone]
Ans: 98.3

Q: Provide only the value of recorded cell viability for O=C(NCCN1CCC(n2c(O)nc3ccccc32)CC1)c1cc2cc(F)ccc2[nH]1 [FIPI]
Ans: 91.2

* * *

- Tested on: K-562
- settings: 72 h
value.kind: IC50 (cell viability)

Use the examples below as a reference point.
[[record]]
compound = "OC[C@H]1O[C@@H](n2cnc3c2N=CNC[C@H]3O)C[C@@H]1O"
system_tested = "K-562"
val = "> 10 µM"

[[record]]
compound = "Cc1c2c(=O)n(-c3ccccc3Cl)[nH]c2cc(=O)n1Cc1ccccn1"
system_tested = "K-562"
val = "6.52 µM"


Q: Specify IC50 (cell viability) for CN(Cc1cnc2nc(N)nc(N)c2n1)c1ccc(C(=O)N[C@@H](CCC(=O)O)C(=O)O)cc1 [Methotrexate] and stop.
Ans: 0.033 µM

Q: Given the compound O=C1C(SCCO)=C(SCCO)C(=O)c2ccccc21 , write its reported IC50 (cell viability).
Ans: 0.549 µM

* * *

- Test system: LAMA-84
- assay.remarks: cell viability (% survival relative to DMSO control, bortezomib = 0%); higher = less cytotoxic
- settings: 10 nM; 72 h
Let's look at some molecules and their measured cell viability.
Just the number in %, nothing appended.

Example entries and their recorded answers appear below.
[[record]]
molecule = "O=c1cc(-c2ccccc2)oc2c1ccc1ccccc12 [Alpha-Naphtoflavone]"
system_tested = "LAMA-84"
uom = "%"
val = 95.9

[[record]]
molecule = "OC[C@H]1NC[C@H](O)[C@@H](O)[C@@H]1O [Duvoglustat]"
system_tested = "LAMA-84"
uom = "%"
val = 98

[[record]]
molecule = "CN(Cc1cnc2nc(N)nc(N)c2n1)c1ccc(C(=O)N[C@@H](CCC(=O)O)C(=O)O)cc1 [Methotrexate]"
system_tested = "LAMA-84"
uom = "%"
val = 34

[[record]]
molecule = "COC(=O)c1cc2c(C(F)(F)F)cc(-c3ccccc3)cc2n1O [NHI-2]"
system_tested = "LAMA-84"
uom = "%"
val = 95

[[record]]
molecule = "N[C@@H](CC(=O)N1CCn2c(nnc2C(F)(F)F)C1)Cc1cc(F)c(F)cc1F [Sitagliptin]"
system_tested = "LAMA-84"
uom = "%"
val = 99.2


Proceed to the following item.
Q: Read the entry O=C(Nc1ccccc1)c1cc([N+](=O)[O-])ccc1Cl [GW9662] and write its reported cell viability.
Ans: 95.9

* * *

Each record here notes measured cell viability.
- Test system: BV-173
- assay.remarks: cell viability (% survival relative to DMSO control, bortezomib = 0%); higher = less cytotoxic
- settings: 10000 nM; 72 h
Where a name gives a salt, the structure may show the parent alone.
Provide only the numeric value, understood in %.

[[record]]
molecule = "Cc1cccc(Nc2cc(Cl)nc(SCC(=O)O)n2)c1C"
system_tested = "BV-173"
uom = "%"
val = 93.5

[[record]]
molecule = "CC(C)(C)c1ccc(S(=O)(=O)NCc2ccc(C(=O)Nc3cccnc3)cc2)cc1"
system_tested = "BV-173"
uom = "%"
val = 0.807

[[record]]
molecule = "O=C([O-])CC(O)(C(=O)[O-])C(O)C(=O)[O-].[K+].[K+].[K+] (stereo unspecified) [Hydroxycitrate]"
system_tested = "BV-173"
uom = "%"
val = 105


Q: Return the recorded cell viability value; entry: C[C@]12C=CC(=O)C=C1CC[C@@H]1[C@@H]2[C@@H](O)C[C@@]2(C)[C@H]1CC[C@]2(O)C(=O)CO
Ans: 2.49

Q: Provide measured cell viability value, entry: CCN(CCO)CCCC(C)Nc1ccnc2cc(Cl)ccc12 (stereo unspecified) [Hydroxychloroquine sulfate]
Ans: 94.8

Q: Name the recorded cell viability of the item CO[C@H]1C[C@@H]2CC[C@@H](C)[C@@](O)(O2)C(=O)C(=O)N2CCCC[C@H]2C(=O)O[C@H]([C@H](C)C[C@@H]2CC[C@@H](OCCO)[C@H](OC)C2)CC(=O)[C@H](C)/C=C(\C)[C@@H](O)[C@@H](OC)C(=O)[C@H](C)C[C@H](C)/C=C/C=C/C=C/1C in your answer.
Ans: 34.3

Values compiled from the supplement of paper PMC8671470.
